measuredProperty: melting point

Can you look up the measured melting point of `Cc1ccc(-c2cc(N)c(Cl)c(C(=O)O)n2)s1` for me?
175 to 176 °C

Proceed to `Nc1cc(-c2ccccc2F)nc(C(=O)O)c1Cl`
121 to 122 °C

Proceed to `Nc1cc(-c2cccc(Cl)c2)nc(C(=O)O)c1Cl`
171 °C

Proceed to `COC(=O)c1nc(-c2ccsc2)cc(NC(C)=O)c1Cl`
133 °C

Proceed to `Nc1cc(-c2ccc(CF)cc2)nc(C(=O)O)c1Cl`
156 to 157 °C

Proceed to `COC(=O)c1nc(-c2ccsc2)cc(N)c1Cl`
129 °C

Proceed to `Cc1cc(F)c(-c2cc(N)c(Cl)c(C(=O)O)n2)cc1Cl`
173 to 175 °C

Proceed to `CCc1ccc(-c2cc(N)c(Cl)c(C(=O)OC)n2)cc1`
119 °C

Proceed to `COC(=O)c1nc(-c2ccc(CF)cc2)cc(N)c1Cl`
95 to 97 °C

Proceed to `COC(=O)c1nc(-c2cccc(OC)c2)cc(N)c1Cl`
122 to 123 °C

Proceed to `COC(=O)c1nc(-c2nccs2)cc(NC(C)=O)c1Cl`
187 to 188 °C

Proceed to `COC(=O)c1nc(-c2ccc(Cl)cc2)c(F)c(N)c1Cl`
233 to 236 °C

Proceed to `COc1ccc(-c2cc(N)c(Cl)c(C(=O)O)n2)cc1`
192 °C

Proceed to `Nc1cc(-c2ccc(Cl)cc2Cl)nc(C(=O)O)c1Cl`
176 to 177 °C

Proceed to `Nc1c(F)c(C(=O)O)nc(-c2ccc3c(c2)OCO3)c1F`
174 to 175 °C

Proceed to `COC(=O)c1nc(-c2cccc(Cl)c2)cc(N)c1Cl`
141 °C

Proceed to `Nc1cc(-c2ccccc2Cl)nc(C(=O)O)c1Cl`
196 to 197 °C

Proceed to `Nc1cc(-c2ccc3c(c2)OCO3)nc(C(=O)O)c1Cl`
182 °C

Proceed to `COC(=O)c1nc(-c2ccc(C(C)C)cc2)cc(N)c1Cl`
92 to 93 °C

* * *

measuredProperty: melting point

Can you look up the measured melting point of `COC(=O)c1nc(-c2ccc(Cl)cc2C)cc(N)c1Cl` for me?
114 to 115 °C

Proceed to `COC(=O)c1nc(-c2ccc(OC)c(OC)c2)cc(NC(C)=O)c1Cl`
153 to 154 °C

Proceed to `COC(=O)c1nc(-c2ccc(Cl)c(F)c2)cc(NC(C)=O)c1Cl`
156 to 157 °C

Proceed to `COC(=O)c1nc(-c2ccc(C)cc2)cc(NC(C)=O)c1Cl`
156 °C

Proceed to `COC(=O)c1nc(-c2nccs2)cc(N)c1Cl`
195 to 197 °C

Proceed to `Nc1cc(-c2cc(Cl)ccc2Cl)nc(C(=O)O)c1Cl`
213 to 215 °C

Proceed to `COC(=O)c1nc(-c2ccc(C=O)cc2)cc(N)c1Cl`
106 to 108 °C

Proceed to `COC(=O)c1nc(-c2ccc(F)cc2Cl)cc(N)c1Cl`
155 to 157 °C

Proceed to `CCCCOCCOC(=O)c1nc(-c2ccc(Cl)cc2)c(F)c(N)c1Cl`
103 to 104 °C

* * *

Test system: Lambsquarter (Chenopodium album)
assayOverview: Postemergence herbicidal activity, greenhouse spray
Format: in vivo
settings: Chenopodium album, post-emergence, 336 h; Table 1; rate 500 ppm; visual score after 2 weeks; read-out: Post-emergent % control CHEAL
Protocol: When required to ensure good germination and healthy plants, a fungicide treatment and/or other chemical or physical treatment was applied. […] A weighed amount, determined by the highest rate to be tested, of each test compound was placed in a 20 mL glass vial and was dissolved in 4 mL of a 97:3 v/v (volume/volume) mixture of acetone and dimethyl sulfoxide (DMSO) to obtain concentrated stock solutions. […]
measuredProperty: pest or weed control at 500 ppm (%)
Record the value in %, omitting the unit from your answer.

Can you look up the measured pest or weed control at 500 ppm of Nc1cc(-c2ccc(Cl)cc2)nc(C(=O)O)c1Cl [Compound 154] for me?
100

Proceed to COC(=O)c1nc(-c2ccc(Cl)cc2F)c(F)c(N)c1F [Compound 93]
95

Proceed to Nc1cc(-c2ccc(Cl)cc2F)nc(C(=O)O)c1Cl [Compound 168]
100

Proceed to CCc1ccc(-c2cc(N)c(Cl)c(C(=O)O)n2)cc1 [Compound 175]
99

Proceed to Nc1cc(-c2ccc(F)cc2Cl)nc(C(=O)O)c1Cl [Compound 170]
100

Proceed to Nc1cc(-c2ccc(Cl)c(F)c2)nc(C(=O)O)c1Cl [Compound 181]
100

Proceed to Nc1cc(-c2ccc(F)c(Cl)c2)nc(C(=O)O)c1Cl [Compound 151]
100

Proceed to Cc1ccc(-c2cc(N)c(Cl)c(C(=O)O)n2)cc1C [Compound 132]
90

Proceed to Nc1cc(-c2cccc(Cl)c2)nc(C(=O)O)c1Cl [Compound 143]
100

Proceed to COC(=O)c1nc(-c2ccc(Cl)cc2)c(Cl)c(N)c1Cl [Compound 86]
100

* * *

measuredProperty: melting point

Can you look up the measured melting point of `COC(=O)c1nc(-c2cccc(C#N)c2)cc(N)c1Cl` for me?
139 to 140 °C

Proceed to `COC(=O)c1nc(-c2ccc3c(c2)CCC3)cc(NC(C)=O)c1Cl`
132 to 134 °C

Proceed to `COC(=O)c1nc(-c2ccc(C(F)(F)F)cc2)cc(N)c1Cl`
149 °C

Proceed to `COC(=O)c1nc(-c2nccs2)c(F)c(N)c1Cl`
185 to 187 °C

Proceed to `COC(=O)c1nc(-c2ccccc2Cl)cc(N)c1Cl`
115 to 117 °C

Proceed to `Nc1cc(-c2cc(F)cc(F)c2)nc(C(=O)O)c1Cl`
182 to 183 °C

Proceed to `COC(=O)c1nc(-c2cnn(C)c2)cc(NC(C)=O)c1Cl`
177 to 178 °C

Proceed to `Nc1cc(-c2ccc(OC(F)(F)F)cc2)nc(C(=O)O)c1Cl`
164 to 165 °C

Proceed to `COC(=O)c1nc(-c2ccc(F)cc2)cc(N)c1Cl`
125 °C

Proceed to `Cc1ccc(-c2cc(N)c(Cl)c(C(=O)O)n2)c(Cl)c1`
71 to 72 °C

Proceed to `Nc1cc(-c2nc3ccccc3s2)nc(C(=O)O)c1Cl`
283 °C

Proceed to `COc1ccc(-c2nc(C(=O)O)c(Cl)c(N)c2Cl)cc1`
139 to 140 °C (dec.)

Proceed to `COC(=O)c1nc(-c2cncnc2)cc(NC(C)=O)c1Cl`
178 to 185 °C

Proceed to `COC(=O)c1nc(-c2cccc(C)c2)cc(N)c1Cl`
98 °C

Proceed to `COC(=O)c1nc(-c2cc(C(F)(F)F)cc(C(F)(F)F)c2)cc(N)c1Cl`
139 to 140 °C

Proceed to `COC(=O)c1nc(-c2ccc(OC)c(C)c2)cc(N)c1Cl`
158 °C

Proceed to `COC(=O)c1nc(-c2ccc3c(c2Cl)OCO3)cc(NC(C)=O)c1Cl`
195 to 196 °C

Proceed to `COC(=O)c1nc(-c2ccc(C(F)(F)F)cc2)c(Cl)c(N)c1Cl`
110 to 111 °C

Proceed to `Nc1cc(-c2ccsc2)nc(C(=O)O)c1Cl`
184 °C

Proceed to `Nc1c(Cl)c(C(=O)O)nc(-c2ccccc2)c1Cl`
135 °C

* * *

measuredProperty: melting point

Can you look up the measured melting point of COC(=O)c1nc(-c2ccc(OC)cc2)cc(N)c1Cl [Compound 17] for me?
148 to 149 °C

Proceed to COC(=O)c1nc(-c2ccc3ccccc3c2)cc(N)c1Cl [Compound 47]
108 to 109 °C

Proceed to CCCCCCCCCCOC(=O)c1nc(-c2ccc(Cl)cc2)c(F)c(N)c1Cl [Compound 244]
62 to 63 °C

Proceed to Nc1c(Cl)c(C(=O)O)nc(-c2ccc(Cl)cc2)c1Cl [Compound 198]
164 to 165 °C

Proceed to COC(=O)c1nc(-c2ccc(Cl)c(F)c2)cc(N)c1Cl [Compound 61]
149 to 151 °C

Proceed to Cc1ccc(-c2cc(N)c(Cl)c(C(=O)O)n2)cc1Cl [Compound 164]
188 °C

Proceed to COC(=O)c1nc(-c2ccc(Cl)cc2)cc(NC(C)=O)c1Cl [Compound 53]
151 to 152 °C

Proceed to COC(=O)c1nc(-c2cc(OC)ccc2OC)cc(NC(C)=O)c1Cl [Compound 81]
124 to 125 °C

Proceed to COC(=O)c1nc(-c2ccc(Cl)cc2Cl)cc(N)c1Cl [Compound 13]
130 to 131 °C
